- target or system: T1, human Claudin 18.2 (CLDN18.2) (human, UniProt P56856-2 1-261)
- T1 construct: whole, on cells; recombinantly expressed on CHO, HEK293, NCI-N87, NUGC4 or PANC-1 cells; also called CHO-CLDN18.2
- experimental protocol: FACS Exp. 1, MFI ratio CHO-18.2 over CHO-18.1
Give MFI_CHO-18.2/CHO-18.1 (@30 ug/ml) for every item shown.
One number for each entry.

Recorded MFI_CHO-18.2/CHO-18.1 (@30 ug/ml) of hz282-11 (antibody, V domains shown, humanized IgG; constant regions not specified; also called humanized 282A12(T62A) (hz282-11)) VH: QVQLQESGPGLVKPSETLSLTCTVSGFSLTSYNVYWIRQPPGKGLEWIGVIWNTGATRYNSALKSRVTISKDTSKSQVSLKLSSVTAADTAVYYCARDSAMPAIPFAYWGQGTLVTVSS VL: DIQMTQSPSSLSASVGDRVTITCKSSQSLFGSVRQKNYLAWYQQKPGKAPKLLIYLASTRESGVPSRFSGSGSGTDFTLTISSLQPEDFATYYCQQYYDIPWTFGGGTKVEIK , please.
1190

Look up MFI_CHO-18.2/CHO-18.1 (@30 ug/ml) for this binder: hz282-2 (antibody, V domains shown, humanized IgG; constant regions not specified) VH: QVQLQESGPGLVKPSETLSLTCTVSGFSLTSYNVYWIRQPPGKGLEWIGVIWNTGATRYNSALKSRVTISKDTSKNQVSLKLSSVTAADTAVYYCARDSAMPAIPFAYWGQGTLVTVSS VL: DIVMTQSPDSLAVSLGERATINCKSSQSLFGSVRQKNYLAWYQQKPGQPPKLLIYLASTRESGVPDRFSGSGSGTDFTLTISSLQAEDVAVYYCQQYYDIPWTFGGGTKVEIK
521

---
# get_value(readout='MFI_CHO-18.2/CHO-18.1 (@30 ug/ml)', item= hz282-17 (antibody, V domains shown, humanized IgG; constant regions not specified) VH: QVQLQESGPGLVKPSETLSLTCTVSGFSLTSYNVYWIRQPPGKGLEWIGVIWNTGATRYNSALKSRVTISVDTSKNQFSLKLSSVTAADTAVYYCARDSAMPAIPFAYWGQGTLVTVSS VL: DIVMTQSPSSLSASVGDRVTINCKSSQSLFGSVRQKNYLAWYQQKPGKSPKLLIYLASTRESGVPDRFSGSGSGTDFTLTISSLQPEDFAKYYCQQYYDIPWTFGGGTKVEIK )
249
